Biological target: SLC19A1 (Homo sapiens, UniProt P41440)
Sequence (P41440 whole entry): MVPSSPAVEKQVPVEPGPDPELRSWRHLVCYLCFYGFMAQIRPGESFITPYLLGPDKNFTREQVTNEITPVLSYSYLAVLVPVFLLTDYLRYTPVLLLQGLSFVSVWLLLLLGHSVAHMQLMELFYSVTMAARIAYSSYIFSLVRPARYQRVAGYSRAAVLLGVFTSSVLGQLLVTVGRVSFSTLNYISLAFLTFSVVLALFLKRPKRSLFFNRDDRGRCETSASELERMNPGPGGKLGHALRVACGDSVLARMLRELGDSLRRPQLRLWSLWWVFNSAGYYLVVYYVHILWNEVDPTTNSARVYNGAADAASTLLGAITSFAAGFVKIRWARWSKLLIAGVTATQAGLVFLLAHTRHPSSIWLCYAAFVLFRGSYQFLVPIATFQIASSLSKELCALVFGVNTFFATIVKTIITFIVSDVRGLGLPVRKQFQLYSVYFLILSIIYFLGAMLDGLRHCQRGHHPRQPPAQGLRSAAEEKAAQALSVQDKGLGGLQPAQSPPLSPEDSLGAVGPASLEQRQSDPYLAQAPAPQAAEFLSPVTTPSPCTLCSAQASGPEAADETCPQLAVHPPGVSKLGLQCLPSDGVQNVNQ
Assay: cryo-EM structure at […] Å and MST; also [3H]-MTX uptake inhibition (IC50 […]) and FSEC thermostability
Quantity Measured: pKd
Answer as the number alone; pKd is minus log10 of concentration in mol/L.

Enquiry: Field request: pKd | item: Cc1ncc(C[n+]2csc(CCO[P@](=O)(O)OP(=O)(O)O)c2C)c(N)n1 [TPP, thiamine pyrophosphate]
Return: 3.49
